The entries below come with measured Array Heatmap value (peptide array binding signal) values attached.
Tested on: PHRF1 (RP)
Test: Histone peptide microarray
Type: binding, human
Settings: PHRF1 (RP), GST-tagged; arrays performed twice, n of 4
Description: To more comprehensively define the histone interactions of the 31 PHD readers identified from the domain microarray analyses, we probed each on an alternate microarray platform containing a library of 293 synthetic histone peptides with single or combinatorial PTMs (Additional file 2: Figure S4 and Additional file 3: Table S2). The 31 GST-tagged PHD readers identified in the PHD finger domain array were expressed and purified as previously. […]
Where no end group is shown, it is not given here. [ ]: non-standard residue; d: D form. Arg(Me2a) = CN(C)C(=N)NCCC[C@H](N)C(=O)O; pS = N[C@@H](COP(=O)(O)O)C(=O)O
parameter: Array Heatmap value (peptide array binding signal)

| substance | tested system | val |
| --- | --- | --- |
| H2AS1p + R3me2a + K5ac: H2A 1-17 ([pS]G[Arg(Me2a)]GK(Ac)QGGKARAKAKTR; UniProt P0C0S8 2-18, looked up, fragment) | PHRF1 (RP) | 0.5154 |
| H2AX (132-142): H2AX 132-142 (GKKATQASQEY; UniProt P16104 133-143, looked up, fragment) | PHRF1 (RP) | 0.3943 |
| H2A.Z (1-19) (N-ac): H2AZ 1-19 (Ac-AGGKAGKDSGKAKTKAVSR; UniProt P0C0S5 2-20, looked up, fragment) | PHRF1 (RP) | 0.3855 |
| Myc-Tag: 1-10 (ILKKATAYIL; Myc epitope tag; UniProt P01106 410-419, looked up, fragment) | PHRF1 (RP) | 0.4883 |
| H2AR3me2a + K5ac: H2A 1-17 (SG[Arg(Me2a)]GK(Ac)QGGKARAKAKTR; UniProt P0C0S8 2-18, looked up, fragment) | PHRF1 (RP) | 0.4082 |
| H2A.Z (1-19): H2AZ 1-19 (AGGKAGKDSGKAKTKAVSR; UniProt P0C0S5 2-20, looked up, fragment) | PHRF1 (RP) | 0.5374 |
| H2AS1p + K5ac: H2A 1-17 ([pS]GRGK(Ac)QGGKARAKAKTR; UniProt P0C0S8 2-18, looked up, fragment) | PHRF1 (RP) | 0.3697 |
| H4K12ac + KQ5,8,16,20: H4 1-23 (SGRGQGGQGLGK(Ac)GGAQRHRQVLR; UniProt P62805 2-24, looked up, variant K5Q K8Q K16Q K20Q) | PHRF1 (RP) | 0.4941 |
| H2A.Z K4ac + K8ac + K12ac (1-19) (N-ac): H2AZ 1-19 (Ac-AGGKAGKDSGKAKTKAVSR; not fully specified (residue 4); UniProt P0C0S5 2-20, looked up, fragment) | PHRF1 (RP) | 0.5134 |
| H2AX (S139p): H2AX 132-142 (GKKATQA[pS]QEY; UniProt P16104 133-143, looked up, fragment) | PHRF1 (RP) | 0.411 |

----------
tested on: KDM7A; test: Histone peptide microarray; assay type: binding, human; conditions: KDM7A, GST-tagged; arrays performed twice, n of 4
Where no end group is shown, it is not given here. [ ]: non-standard residue; d: D form. Arg(Me2a) = CN(C)C(=N)NCCC[C@H](N)C(=O)O; pS = N[C@@H](COP(=O)(O)O)C(=O)O
The entries below come with measured Array Heatmap value (peptide array binding signal) values attached.
parameter: Array Heatmap value (peptide array binding signal)

| substance | val |
| --- | --- |
| H2AS1p + K5ac: H2A 1-17 ([pS]GRGK(Ac)QGGKARAKAKTR; UniProt P0C0S8 2-18, looked up, fragment) | 0.2299 |
| H2AX (132-142): H2AX 132-142 (GKKATQASQEY; UniProt P16104 133-143, looked up, fragment) | 0.3262 |
| H2A.Z (1-19): H2AZ 1-19 (AGGKAGKDSGKAKTKAVSR; UniProt P0C0S5 2-20, looked up, fragment) | 0.3952 |
| H2AR3me2a + K5ac: H2A 1-17 (SG[Arg(Me2a)]GK(Ac)QGGKARAKAKTR; UniProt P0C0S8 2-18, looked up, fragment) | 0.3242 |

Taken from paper PMC6979384.
